Experiment: chemical genetic growth profiling, strain panel (AID 1159580);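 further: tested at 20 µM; growth read once vehicle control cultures reached saturation at 30 °C; 1 = growth at the plate median or of vehicle wells; lower values mean less growth of the strain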
Conditions: S. cerevisiae deletion strains, growth OD, locus YER111C, strain swi4, stronger effect = lower value
Structures can show the parent of a compound that is named as a salt. Among all 5,500 compounds or so, about 2,000 (36%) were called active. Inconclusive results (about 18%) are left out. The list shows a part of the results. Where a SMILES comes first, the peptide text is derived from it. The star is where a group is joined. Tfa = O=C(C(F)(F)F)*
Exercise: for every item that follows, state its recorded normalized growth.
Reply with just the number.

For CCC(C)(C)C(=O)O[C@H]1C[C@@H](C)C=C2C=C[C@H](C)[C@H](CC[C@@H]3C[C@@H](O)CC(=O)O3)[C@H]21 , what is its reported normalized growth? 1.01

For CCCC(=O)O[C@]1(C(=O)CO)CCC2[C@@H]3CCC4=CC(=O)CC[C@]4(C)C3[C@@H](O)C[C@@]21C (some centres undefined) , what is its reported normalized growth? 1.01

For COc1cc(OC)c2c(=O)c(-c3ccccc3)coc2c1 , what is its reported normalized growth? 1.02

For CCOC(=O)[C@H](CCc1ccccc1)N[C@@H](C)C(=O)N1[C@H](C(=O)O)C[C@@H]2CCC[C@@H]21 , what is its reported normalized growth? 0.976

For CCOC(=O)Nc1nc2ccccc2[nH]1 , what is its reported normalized growth? 0.991

For OC(Cn1cncn1)(Cn1cncn1)c1ccc(F)cc1F , what is its reported normalized growth? 0.999

For COc1cc2occ(-c3ccccc3)c(=O)c2c(OC)c1C , what is its reported normalized growth? 1

For O=C1NC(=O)C(=O)C(=O)N1 , what is its reported normalized growth? 0.986

For COc1cc([C@@H]2c3cc4c(c(O)c3C[C@H]3COC(=O)[C@@H]32)OCO4)cc(OC)c1OC , what is its reported normalized growth? 0.989

For C[C@H]1CC[C@@H](C(C)(C)O)CC2=C1CC[C@@H]2C , what is its reported normalized growth? 0.984

For O=C1OC(c2ccc(O)cc2)(c2ccc(O)cc2)c2ccccc21 , what is its reported normalized growth? 0.995

For O=C(C1CCCCC1)N1CC(=O)N2CCc3ccccc3C2C1 (centres undefined) , what is its reported normalized growth? 1

For CC(C(=O)O)c1ccc(C(=O)c2cccs2)cc1 (centres undefined) , what is its reported normalized growth? 0.985

For CCNC(=O)CC[C@H](N)C(=O)O , what is its reported normalized growth? 1

For COc1ccc(-c2coc3cc(OC)cc(OC)c3c2=O)cc1 , what is its reported normalized growth? 0.991

For COc1ccc2c(c1)O[C@H]1c3ccc(OC)cc3OC[C@@H]21 , what is its reported normalized growth? 1.02

For COC(=O)C(O)c1ccccc1 (centres undefined) , what is its reported normalized growth? 0.981

For CCC(C)C(=O)O[C@H]1C[C@H](O)C=C2C=C[C@H](C)[C@H](CC[C@@H](O)C[C@@H](O)CC(=O)O)C21 (some centres undefined) , what is its reported normalized growth? 1.02

For COc1ccc([C@H]2Oc3cc(OC)cc(OC)c3C[C@H]2O)cc1 , what is its reported normalized growth? 0.998

For CC(C)C(NC(=O)C(Cc1ccc(O)cc1)NC(=O)C(NC(=O)C(F)(F)F)C(C)C)C(=O)O (stereo not drawn) (Tfa-Val-Tyr-Val-OH; configuration not given here) , what is its reported normalized growth? 0.972

For CC(=O)N[C@@H](CS)C(=O)O , what is its reported normalized growth? 0.989

For Nc1ccn(C2O[C@H](CO)[C@@H](O)[C@@H]2O)c(=O)n1 (some centres undefined) , what is its reported normalized growth? 0.987

For O=c1cc[nH]c(=S)[nH]1 , what is its reported normalized growth? 1.01

For O=c1[nH]oc2c1CCNC2 , what is its reported normalized growth? 0.994

From: PubChem BioAssay AID1159580
